Consider the following compounds; for each one, report its relative viability.
tested on: NCI-H1944; test: relative viability (nuclei count vs DMSO), 5 days (fraction); higher = more cells survive; conditions: first compound 0.005 µM
Give bare numbers.

Completed entries (count: 2):
Data point: Nc1ccn([C@@H]2O[C@H](CO)[C@@H](O)[C@@H]2O)c(=O)n1 [Cytarabine] + CCNC(=O)c1noc(-c2cc(C(C)C)c(O)cc2O)c1-c1ccc(CN2CCOCC2)cc1 [Luminespib] (partner 0.01 µM) ; relative viability = 0.619

Data point: Nc1ccn([C@@H]2O[C@H](CO)[C@@H](O)[C@@H]2O)c(=O)n1 [Cytarabine] + C[C@]1(O)C[C@@H](c2nc(-c3ccc4ccc(-c5ccccc5)nc4c3)c3c(N)nccn32)C1 [Linsitinib] (partner 1 µM) ; relative viability = 1.1

Let us move to another entry and its relative viability.
Data point: COc1cc2nccc(Oc3ccc(NC(=O)Nc4cc(C)on4)c(Cl)c3)c2cc1OC [Tivozanib] + N=C(N)NC(=N)NCCc1ccccc1 [Phenformin] (partner 250 µM) ; relative viability = 0.189

Attribution: the supplement of paper PMC10307832
